Tested on: HEK293
Assay: Cellular IC50 HEK293
Type: cell-based
Settings: Homo sapiens, HEK293, read-out: Cellular IC50 HEK293
pIC50: −log10 of the molar value.
This listing pairs compounds with measured pIC50.

Record smiles: CCOc1ccc(-c2nnc([C@H]3C[C@H](NC(=O)c4ccnc5cc(F)cnc45)C3)n2-c2ccncc2)nc1
pIC50: 8.22
//
Record smiles: CCOc1ccc(-c2nnc([C@H]3C[C@H](NC(=O)c4ccccn4)C3)n2-c2ccc(Cl)s2)nc1
pIC50: 7.57
//
Record smiles: CCOc1ccc(-c2nnc([C@H]3C[C@H](NC(=O)c4ccnc5cc(F)cnc45)C3)n2-c2ccc(C)s2)nc1
pIC50: 9.00
//
Record smiles: CCOc1ccc(-c2nnc([C@H]3C[C@H](NC(=O)c4ccc5ncccc5n4)C3)n2-c2ccccc2F)nc1
pIC50: 8.30
//
Record smiles: CCOc1ccc(-c2nnc([C@H]3C[C@H](NC(=O)c4ccnc5cc(F)cnc45)C3)n2-c2cccnc2)nc1
pIC50: 8.05
//
Record smiles: CCOc1ccc(-c2nnc([C@H]3C[C@H](NC(=O)c4ccccn4)C3)n2-c2cccc(Cl)c2)nc1
pIC50: 7.08
//
Record smiles: CCOc1ccc(-c2nnc([C@H]3C[C@H](NC(=O)c4ccccn4)C3)n2-c2ccc(C)s2)nc1
pIC50: 7.43
